Data provenance: ChEMBL document CHEMBL2331226

Please respond with reported IC50 for every item in the list.
test system: A2780; test: Cytotoxicity against human A2780 cells; type: functional, cell-based
One number for each entry, in nM.

# smiles_text, value_type, readout_number
data = [
    ("COc1c(CC=C(C)C)c(O)c(C(C)=O)c(O)c1Cc1c(O)c(C(C)=O)c(O)c(CC=C(C)C)c1OC", "IC50", 1300),
]

We next turn to a different compound, shown below.
Prompt: GET /values?readout=IC50&item= "COc1c(C)c(O)c(C(C)=O)c(O)c1Cc1c(O)c(C(C)=O)c(O)c(CC=C(C)C)c1OC"
Completion: 1100
